test: small-molecule microarray binders of probe aWnt5a, primary screen, biochemical, biotinylated probe, 635/667 nm fluorescence (AID 1113); settings: higher = more signal;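 further: score merges 667 nm fluorescence intensity with signal-to-noise per printed feature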
experimentalReadout: composite z-score

[[record]]
molecule = "C[C@H]1CC[C@H]2C(=O)OC(CO)CN2[C@@H]1c1ccc(Br)cc1 (stereo not given in full)"
experimentalreadout = "composite z-score"
observedmeasurement = -0.0778

[[record]]
molecule = "C#CCCCON=C1C[C@@H](O)[C@@H](O)[C@@H]2[C@@H]3C(=O)N(C(C)(C)C)C(=O)[C@@H]3CC[C@@H]12"
experimentalreadout = "composite z-score"
observedmeasurement = -0.0721

[[record]]
molecule = "CC(C)CON=C1C[C@@H](O)[C@@H](O)[C@@H]2[C@@H]3C(=O)N(C[C@@H]4CCCO4)C(=O)[C@@H]3CC[C@@H]12"
experimentalreadout = "composite z-score"
observedmeasurement = -0.173

[[record]]
molecule = "CC(CCN1CCc2nc(-c3ccccc3)c(-c3ccccc3)cc2C1)=NOC[C@@H](O)[C@H]1O[C@@H]2OC(C)(C)O[C@@H]2[C@H]1O"
experimentalreadout = "composite z-score"
observedmeasurement = -0.139

[[record]]
molecule = "COC(=O)CC=C[C@@H](C)[C@H](OCc1cccc(-c2ccccc2)c1)C1CCCCC1"
experimentalreadout = "composite z-score"
observedmeasurement = -0.12

[[record]]
molecule = "COc1ccc(O[C@H]2C=C[C@@H](c3ccccc3)O[C@@H]2CON=CC[C@@H]2C=C[C@H](OC(C)=O)[C@@H](COC(C)=O)O2)cc1"
experimentalreadout = "composite z-score"
observedmeasurement = -0.145

[[record]]
molecule = "COc1ccc(COC(=O)NN=C2C[C@@H](O)[C@@H](O)[C@@H]3[C@@H]4C(=O)N(Cc5ccccc5)C(=O)[C@@H]4CC[C@H]23)cc1"
experimentalreadout = "composite z-score"
observedmeasurement = -0.0758

[[record]]
molecule = "O=C(NN=C1C[C@@H](O)[C@@H](O)[C@@H]2[C@@H]3C(=O)N(C[C@@H]4CCCO4)C(=O)[C@@H]3CC[C@H]12)OCc1ccccc1"
experimentalreadout = "composite z-score"
observedmeasurement = 0.0377

[[record]]
molecule = "CCOC(=O)[C@H](CC(C)C)NC(=O)CCC1CC(OC(=O)NCc2ccc3c(c2)OCO3)CC2(CCCC(COC(=O)NCC3CCCCC3)O2)O1 (stereo not given in full)"
experimentalreadout = "composite z-score"
observedmeasurement = -0.0087

[[record]]
molecule = "C=CC[C@@H]1C=C[C@H](ON=C(C)CCC(=O)OC[C@H]2O[C@H](c3ccccc3)C=C[C@@H]2Oc2ccc(OC)cc2)[C@@H](CO)O1"
experimentalreadout = "composite z-score"
observedmeasurement = -0.152

